Below: a set of entries, each annotated with reported Remaining.
assay: Human liver microsomal stability of compound in microsomal protein, PBS buffer pH 7.4, NADPH, glucose-6-phosphate and glucose-6-phosphate dehydrogenase media. Aliquotes were taken at 5 time points and after stopping the reaction, supernatants were analyzed using HPLC coupled with a tandem mass spectrometer. The elimination constant, half-life, and intrinsic clearance are determined as results using linear regression analysis. Note: time not given here.
Format: ADME, microsomes, Microsome
measurement-setup: microsomes
Report as a plain number; the unit % is understood.

Field: example entries. Status: answers known.
> print(dat)
                            molecule.smiles     metric  unit.label  experimental.value
1  O=C(Nc1cc(Br)c2c(c1)CNC2)c1cc(F)cc2[nH]ncc12  Remaining           %              77.163
2     O=C(Nc1ccc2c(c1)CNC2)c1cc(F)cc2c1CCC2  Remaining           %              95.811

input: Fill in: Remaining of `O=C(Nc1cc2c(c(C3=CCS(=O)(=O)CC3)c1)CNC2)c1cc(F)cc2[nH]ncc12` is ___
output: 98.934

input: Would you kindly share the measured Remaining for `O=C(NCC(F)F)[C@H](Nc1cnc2c(c1)CNC2)c1cc(Cl)cc(C2CC2)c1` ?
output: 91.952

input: If you can, please state the reported Remaining value of `O=C(Nc1cc(Cl)cc(C(=O)Nc2cccc(-n3nn[nH]c3=O)c2)c1)OCc1ccccc1` .
output: 81.771

input: I would be grateful if you could share the reported Remaining for `O=C(NCC(F)(F)F)c1cc(Cl)c(F)cc1NS(=O)(=O)c1ccc(Oc2ccccc2Cl)cc1` .
output: 33

input: So what does the record say about Remaining for `CNC(=O)[C@H](Nc1cc(Cl)cc(NC(=O)OCc2ccccc2)c1)c1cccc(-c2nn[nH]n2)c1` ?
output: 70.065

input: Endpoint output: Remaining of `NCCc1ccc(NC(=O)c2cc(Cl)cc(NC(=O)OCc3ccccc3)c2)cc1` . Value?
output: 76.258

input: What value of Remaining has been reported for the following molecule? `O=C(Nc1cc(Cl)cc([C@H]2CN(Cc3ccccc3)C[C@@H]2c2cccc(-c3nn[nH]n3)c2)c1)OCc1ccccc1`
output: 46.707

input: Endpoint output: Remaining of `N#C[C@H](Nc1cccc(-c2nn[nH]n2)c1)c1cc(Cl)cc(NC(=O)OCc2ccccc2)c1` . Value?
output: 82.243

input: So what's the measured Remaining for this one? `CCCCNC(=O)[C@H](Nc1ccc2c(c1)CNC2)c1cc(Cl)cc(C2CC2)c1`
output: 75.607

input: Which measured Remaining value corresponds to `Nc1ccncc1-c1cc(F)cc(C(=O)Nc2ccc3c(c2)CNC3)c1` ?
output: 84.663

input: What does the data say about its Remaining? Entry: `O=C(Nc1cc2c(c(-c3c[nH]c(=O)c(F)c3)c1)CNC2)c1cc(F)cc2[nH]ncc12`
output: 95.49

input: So what does the record say about Remaining for `CCOc1cccc(-c2ccc(S(=O)(=O)Nc3ccc(Cl)cc3C(=O)O)cc2)c1` ?
output: 15.029

input: Item `OCC#C[C@H](Nc1ccc2c(c1)CNC2)c1cc(Cl)cc2[nH]ncc12` has what recorded Remaining?
output: 89.541

---

assay: Mouse liver microsomal stability of compound in microsomal protein, PBS buffer pH 7.4, NADPH, glucose-6-phosphate and glucose-6-phosphate dehydrogenase media. Aliquotes were taken at 5 time points and after stopping the reaction, supernatants were analyzed using HPLC coupled with a tandem mass spectrometer. The elimination constant, half-life, and intrinsic clearance are determined as results using linear regression analysis.
Assay type: ADME, microsomes, Microsome
measurement-setup: microsomes
We begin with a simple list: items and their reported Remaining.
Provide the reading as a plain figure in %.

> print(dat)
                            molecule.smiles     metric  experimental.value
1  CNC(=O)c1cc(Cl)c(F)cc1NS(=O)(=O)c1ccc(Oc2ccccc2Cl)cc1  Remaining              39.045
2  N#CCCNC(=O)[C@H](Nc1ccc2c(c1)CNC2)c1cc(Cl)cc(C2CC2)c1  Remaining              93.147
3  Cc1cc([C@H](Nc2ccc3c(c2)CNC3)C(=O)NCC(F)F)cc(C(F)(F)F)c1  Remaining              85.983
4  CNC(=O)c1cc(Cl)ccc1NS(=O)(=O)c1ccc(Oc2ccccc2Cl)cc1  Remaining                  16

input: Query (molecule): `O=C(NCC(F)F)[C@H](Nc1cnc2c(c1)CNC2)c1cc(Cl)cc(C2CC2)c1` ; field requested: Remaining
output: 87.443
